- assay_name: Thermal aging of neat distillate in 85 deg C. oven under air up to 28 days
- Format: physicochemical
- experimental_conditions: neat distillate, 85 deg C., air, 28 days, measured as a 20% solution
property_measured: APHA color after 28 days

Query :: Give me measured APHA color after 28 days, please, for this compound: COc1cc(C(C)(C)C)c(O)c(C(C)(C)C)c1
Result :: 28

Query :: Identify measured APHA color after 28 days corresponding to COc1cc(C)cc(OC)c1O
Result :: 17

Query :: For CCCC(c1cc(C(C)(C)C)c(O)cc1C)c1cc(C(C)(C)C)c(O)cc1C , write its APHA color after 28 days.
Result :: 191

Query :: Read the entry COc1ccc(O)c(C(C)(C)C)c1 [BHA, butylated hydroxyanisole] and write its reported APHA color after 28 days.
Result :: 40

Query :: Quick one: give measured APHA color after 28 days for CC(C)(C)c1cc(O)ccc1O [TBHQ, tert-butylhydroquinone]
Result :: 233

====

- assay_name: Thermal aging of neat distillate in 85 deg C. oven under air up to 28 days
- Format: physicochemical
- experimental_conditions: 85 degrees Celsius, 4 weeks; APHA less than 200 neat distillate and less than 250 for 85% solution
property_measured: color stability criteria after accelerated aging

* COc1ccc(O)c(C(C)(C)C)c1 [BHA, butylated hydroxyanisole] | criteria were met
* COc1cc(C)cc(OC)c1O [DMMP, 2,6-dimethoxy-4-methylphenol] | criteria were met

====

- assay_name: Thermal aging of 85% solution of the distillate in water at 85 deg C. up to 28 days
- Type: physicochemical
- experimental_conditions: 85% solution, time zero, diluted (20%)
property_measured: APHA color, time zero

* CC(C)(C)c1cc(O)ccc1O [TBHQ, tert-butylhydroquinone] | less than 1
* COc1ccc(O)c(C(C)(C)C)c1 [BHA, butylated hydroxyanisole] | less than 1
* CCCC(c1cc(C(C)(C)C)c(O)cc1C)c1cc(C(C)(C)C)c(O)cc1C | less than 1
